- Test system: ISC-enriched organoids
- Assay Remarks: Primary screen, 384-well 2.5-D organoid differentiation (ENR+CD, 6 days): basal lysozyme secretion (LYZ.NS)
- Assay type: cell-based, murine
- Condition Parameters: dose 0.40 uM (2nd of 4 lines per treatment; dose not printed in this part)
Entries and their SSMD.LYZ.NS_Rep (strictly standardized mean difference)

{"Molecule": "O=C(O)C(Cc1ccccc1[N+](=O)[O-])=NNc1nc(-c2ccc(Cl)c(Cl)c2)cs1 (mixture of isomers)", "Value Observed": 0.264}
{"Molecule": "C[C@H](Oc1cc(-c2cnn(C3CCNCC3)c2)cnc1N)c1c(Cl)ccc(F)c1Cl [(S)-crizotinib]", "Value Observed": 0.094}
{"Molecule": "N#Cc1c(O)c2c(-c3ccc(-c4ccccc4O)cc3)csc2[nH]c1=O", "Value Observed": 0.498}
{"Molecule": "CC(C)N(CC[C@H](c1ccccc1)c1cc(CO)ccc1O)C(C)C", "Value Observed": 0.226}

q: # input molecule: CN1CCc2cc3c(cc2[C@H]1[C@@H]1OC(=O)c2c1ccc1c2OCO1)OCO3 [(+)-Bicuculline] ; wanted: its SSMD.LYZ.NS_Rep (strictly standardized mean difference)
a: 0.106

q: # input molecule: "CC1(C)CCC(c2ccc(Cl)cc2)=C(CN2CCN(c3ccc(C(=O)NS(=O)(=O)c4ccc(N[C@H](CCN5CCOCC5)CSc5ccccc5)c(S(=O)(=O)C(F)(F)F)c4)cc3)CC2)C1" ; wanted: its SSMD.LYZ.NS_Rep (strictly standardized mean difference)
a: 0.062

q: # input molecule: C=C1C(=O)O[C@H]2[C@H]1CC/C(C)=C/CC[C@@]1(C)O[C@@H]21 [(−)-Parthenolide] ; wanted: its SSMD.LYZ.NS_Rep (strictly standardized mean difference)
a: 0.480
